Origin of the recorded values: PubChem BioAssay (NCI)

# Tested on: HCT-116 colon
# test.name: NCI tumour cell line growth inhibition, 48 h
Property: TGI; scope: individual molecules

# example entries with known answers
molecule	measured.parameter	readout.value
Nc1nc(Cl)cc(NCC2(CO)CC(CCCc3ccccc3)C2)n1 (configuration not stated)	TGI	> 100 µM
CC(=O)OC1COC(n2c(O)c(N=Nc3ccc([N+](=O)[O-])cc3)c3cc(Br)c([N+](=O)[O-])cc32)C(OC(C)=O)C1OC(C)=O (configuration not stated)	TGI	> 100 µM

Sample `Cc1ccc(N/N=C/C2=CC(C)(C)C(C#N)(C#N)C(O)=C2C#N)cc1` — what was its TGI?
> 100 µM

Sample `O=C(Nc1ccc(-n2ccc3c(NC(=O)c4ccccc4)ncnc32)cc1)Nc1ccc(Cl)c(C(F)(F)F)c1` — what was its TGI?
2.96 µM

Sample `Nc1ccc([As](=O)(O)O)cc1` — what was its TGI?
> 100 µM

Sample [N-]=[N+]=CC(=O)OC1CCc2ccccc21 (configuration not stated) — what was its TGI?
> 100 µM

Sample `CCOc1cccc2sc(N)nc12` — what was its TGI?
> 100 µM

Sample Cc1cc2nn(C3CCCCO3)nc2cc1C (configuration not stated) — what was its TGI?
> 100 µM

Sample CC(=O)N(CN1C(=O)CCC1C(=O)O)c1ccc(C)cc1 (configuration not stated) — what was its TGI?
> 100 µM

Sample `NC(N)=NS(=O)(=O)c1ccc(NC(=O)c2cccn3c(=O)c4ccccc4nc23)cc1` — what was its TGI?
> 100 µM

Sample `COc1ccc(-c2cnc(SCC(=O)c3c(C)n(C)n(-c4ccccc4)c3=O)n2-c2ccc(OC)cc2)cc1` — what was its TGI?
> 50 µM

Sample `CCOc1ccc(NC(=O)/C(Cc2nc3ccccc3[nH]c2=O)=N\O)cc1` — what was its TGI?
> 100 µM

* * *

# Tested on: SF-295 CNS
# test.name: NCI tumour cell line growth inhibition, 48 h
Property: TGI; scope: individual compounds

compound	TGI
C/C(=N\NC(=O)C[n+]1ccccc1)c1sc(-c2nc(C)c(/C(C)=N/NC(=O)C[n+]3ccccc3)s2)nc1C	> 100 µM
CCCCN1C(=O)C2c3[nH]c4ccccc4c3C3CCCCC3C2C1=O (mixture of isomers)	23.7 µM
N=C(N)c1ccc(CS(=O)(=O)F)cc1	> 100 µM
COc1c(N2CCCCC2)c2c(=O)c3ccccc3oc2c2cc(C)oc12	> 100 µM

Sample C=C1CC(COc2ccc3c(C)c(Cl)c(=O)oc3c2)(c2ccccc2)OC1=O (stereo not given) — what was its TGI?
22.7 µM

Sample CSC1=C(C(=O)N(COCC[Si](C)(C)C)c2ccccc2Br)CCC(C(C)(C)C)C1 (stereo not given) — what was its TGI?
25.6 µM

Sample `CCOC(=O)c1ccc(OCc2nc3cc(C(F)(F)F)ccc3nc2-c2ccccc2)cc1` — what was its TGI?
> 100 µM

Sample NNC(=O)C(O)C(O)C(O)CO (stereo not given) — what was its TGI?
> 100 µM

* * *

# Test system: OVCAR-5 ovarian
# test.name: NCI tumour cell line growth inhibition, 48 h
measured.parameter: TGI

# example entries with known answers
compound	TGI
OCCNC(=S)Nc1ccc(-c2nc(N3C[C@H]4CC[C@@H](C3)O4)c3cccn3n2)cc1	15.3 µM
NCc1ccc(O)c(O)c1O	40.5 µM
C=C(c1ccc(OC)c(/C=C/C(=O)c2cc(OC)c(OC)c(OC)c2)c1)c1cc(OC)c(OC)c(OC)c1	6.14 µM

GET /values?readout=TGI&system=OVCAR-5 ovarian&item= `CC/C=C\C[C@H](O)C/C=C1/C(=O)C=C[C@@H]1C/C=C\CCCC(=O)OCCS(=O)(=O)c1ccccc1`
29.5 µM

GET /values?readout=TGI&system=OVCAR-5 ovarian&item= `COc1cccc(-c2cc(=O)c3cc(C)c(C)c(C(=O)O)c3o2)c1`
> 100 µM

GET /values?readout=TGI&system=OVCAR-5 ovarian&item= `COc1ccc2c(c1)[n+]([O-])c(/C(C)=N/NC(N)=S)c(C)[n+]2[O-]`
> 100 µM

GET /values?readout=TGI&system=OVCAR-5 ovarian&item= `C=C(c1ccccc1)[C@@]1(O)CCCC[C@H]1NC(c1ccccc1)c1ccccc1`
27 µM

GET /values?readout=TGI&system=OVCAR-5 ovarian&item= `O=c1ncc(I)c[nH]1`
> 100 µM

GET /values?readout=TGI&system=OVCAR-5 ovarian&item= CCCCCCCCCCCCCCC(C(=O)[O-])[n+]1ccccc1 (stereo not given)
> 100 µM

GET /values?readout=TGI&system=OVCAR-5 ovarian&item= CCCCCCCCCCCCCCCCC(=O)NCC(=O)NCC(=O)NC(Cc1ccccc1)C(=O)Oc1ccc([N+](=O)[O-])cc1 (stereo not given)
57.7 µM
